What binding signal was measured for each of the following?
Target: TDP-43 (Homo sapiens, UniProt Q13148 1-414)
Sequence (Q13148 whole entry): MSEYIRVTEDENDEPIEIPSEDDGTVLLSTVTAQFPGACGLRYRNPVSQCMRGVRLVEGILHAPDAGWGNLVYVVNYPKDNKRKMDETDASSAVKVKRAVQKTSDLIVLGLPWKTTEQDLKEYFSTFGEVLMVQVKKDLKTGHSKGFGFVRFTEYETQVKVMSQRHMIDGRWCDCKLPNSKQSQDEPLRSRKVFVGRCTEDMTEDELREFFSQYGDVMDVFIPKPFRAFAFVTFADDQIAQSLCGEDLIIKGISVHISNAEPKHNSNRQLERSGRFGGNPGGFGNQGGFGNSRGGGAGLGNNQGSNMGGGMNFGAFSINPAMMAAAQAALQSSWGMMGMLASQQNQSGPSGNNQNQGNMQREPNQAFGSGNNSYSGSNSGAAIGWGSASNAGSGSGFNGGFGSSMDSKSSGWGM
Assay: RNA Bind-n-Seq with designed 260-mer pool; 25 mM Tris-HCl, 150 mM KCl, 3 mM MgCl2, BSA (printed 500 mg/mL), 20 units/mL SUPERase IN; pH not stated; 500 nM RNA pool, 1 h, 4 C; TDP-43 5, 50, 500 nM; high values mean tight binding
Conditions: protein: recombinant; tags: SBP (GST cleaved off with PreScission; pGEX-GST-SBP)
Whole data set: some 9,900 sequences, median “r (bound/input frequency ratio)” near 0.7, cut for the highest 2% near 6.5. Shown is part of a subset that was picked to be rich in the highest values.

Reference set, count: 5
>  <BINDER>
ENSMUSG00000058297.271|Spock2 (ssRNA) RNA: GGGAGUUCUACAGUCCGACGAUCGCUUCGAUAUCCGCAUGCUAUACCUGGGCCUCUGAUACCCUUUGGUACGCGUACGUGUGUGUGGCGCGUAUACGUGUGUGUGUGUGUGUGUGUGUGUGUGUGUGUGUGUGUGUGUGAGAGAGAGAGAGAGAGAGAGAGAGAGAGAGAGAGAGAAAGAGAGAGAGAAUGAGAGAGAAUGAGAGAGAGAAUACCCGAGGGCCACCCUGAUGCCCAGGAAGAGUGAGGGCAGCCCCCUGUGUGGUGGAAGAGGCUGGGCAGCUAGCUACUGGGGACCUUGUGCCUCUUGCGGUCGCACUAGUGUGGAAUUCUCGGGUGUCAAGG

>  <binding signal>
8.28 R (bound/input frequency ratio)

$$$$
>  <BINDER>
ENSMUSG00000058297.268|Spock2 (ssRNA) RNA: GGGAGUUCUACAGUCCGACGAUCGCUUCGAUAUCCGCAUGCUAAUUUGAUGAAGAAUUCCUUACCUGGGCCUCUGAUACCCUUUGGUACGCGUACGUGUGUGUGGCGCGUAUACGUGUGUGUGUGUGUGUGUGUGUGUGUGUGUGUGUGUGUGUGUGAGAGAGAGAGAGAGAGAGAGAGAGAGAGAGAGAGAGAAAGAGAGAGAGAAUGAGAGAGAAUGAGAGAGAGAAUACCCGAGGGCCACCCUGAUGCCCAGGAAGAGUGAGGGCAGCCCCCUGUGUGGUGGAAGAGGCUGGGCAGCUAGCUCUUGCGGUCGCACUAGUGUGGAAUUCUCGGGUGUCAAGG

>  <binding signal>
2.37 R (bound/input frequency ratio)

$$$$
>  <BINDER>
ENSMUSG00000058297.10|Spock2|191:195;199:212;221:232;246:252 (ssRNA) RNA: GGGAGUUCUACAGUCCGACGAUCGCUUCGAUAUCCGCAUGCUAGGAGGGUGAGGCGGGUGAGGCAGAUGAUGGAGGCUACAUCUGGUAGAUAGCCCUCGACGGCCUCGGCAGGCCAGGGUGCCGACGGCCAGAAAGACAGGCCAGAAGAGACCUGGACAACAGCAGGCAACUUAGCAAAUGGAUCCGGAAGUCAGUGCGGAGGACCCUGGCUCCAGUGGGGGAGGACUGGGGACACACGCUACACACAUACACACAUAUGAGAACACACACAUACAUGUGAGAUGUGACACACACAUGUGAGACUCUUGCGGUCGCACUAGUGUGGAAUUCUCGGGUGUCAAGG

>  <binding signal>
2.04 R (bound/input frequency ratio)

$$$$
>  <BINDER>
ENSMUSG00000058297.12|Spock2|179:183;187:200;209:220;234:240;249:258 (ssRNA) RNA: GGGAGUUCUACAGUCCGACGAUCGCUUCGAUAUCCGCAUGCUAGGGUGAGGCAGAUGAUGGAGGCUACAUCUGGUAGAUAGCCCUCGACGGCCUCGGCAGGCCAGGGUGCCGACGGCCAGAAAGACAGGCCAGAAGAGACCUGGACAACAGCAGGCAACUUAGCAAAUGGAUCCGGAAGUCAGUGCGGAGGACCCUGGCUCCAGUGGGGGAGGACUGGGGACACACGCUACACACAUACACACAUAUGAGAACACACACAUACAUGUGAGAUGUGACACACACAUGUGAGAACACACAUACUGCUCUUGCGGUCGCACUAGUGUGGAAUUCUCGGGUGUCAAGG

>  <binding signal>
2.28 R (bound/input frequency ratio)

$$$$
>  <BINDER>
ENSMUSG00000031028.174|Tub|17:22 (ssRNA) RNA: GGGAGUUCUACAGUCCGACGAUCGCUUCGAUAUCCGCAUGCUAAGAGGUAGCGGACCUCACACACGUUCACCAACAGCAAUGCUGAUCCCUGAGUAUAGGGCACAUGUCUCUUGGUUACCUCACUGGUUAAUGGCAGAGUUGAGAACCUCAAAUUCUUUUGUUCCUACUGUUGCCCAGAAACUAGACUCUCUGACCUGCUAGGGUCUAUUCUGCAUGUCCUUUCUCUUCCCAGUUCCAGAGAUGAAACCCCUCCGAGUUAAUGUAUAAGGUUGGAAACCUUUCAGUAGGGAAUCAGGCAGUUCCUCUUGCGGUCGCACUAGUGUGGAAUUCUCGGGUGUCAAGG

>  <binding signal>
0.553 R (bound/input frequency ratio)

$$$$

Would you be so kind as to report binding signal for each listed record?
1. ENSMUSG00000058297.13|Spock2|173:177;181:194;203:214;228:234;243:252 (ssRNA) RNA: GGGAGUUCUACAGUCCGACGAUCGCUUCGAUAUCCGCAUGCUAGGCAGAUGAUGGAGGCUACAUCUGGUAGAUAGCCCUCGACGGCCUCGGCAGGCCAGGGUGCCGACGGCCAGAAAGACAGGCCAGAAGAGACCUGGACAACAGCAGGCAACUUAGCAAAUGGAUCCGGAAGUCAGUGCGGAGGACCCUGGCUCCAGUGGGGGAGGACUGGGGACACACGCUACACACAUACACACAUAUGAGAACACACACAUACAUGUGAGAUGUGACACACACAUGUGAGAACACACAUACUGAGAUGUCUCUUGCGGUCGCACUAGUGUGGAAUUCUCGGGUGUCAAGG
2. ENSMUSG00000058297.266|Spock2 (ssRNA) RNA: GGGAGUUCUACAGUCCGACGAUCGCUUCGAUAUCCGCAUGCUAUUUCCUUGAUAUAUUUGAUGAAGAAUUCCUUACCUGGGCCUCUGAUACCCUUUGGUACGCGUACGUGUGUGUGGCGCGUAUACGUGUGUGUGUGUGUGUGUGUGUGUGUGUGUGUGUGUGUGUGUGAGAGAGAGAGAGAGAGAGAGAGAGAGAGAGAGAGAGAAAGAGAGAGAGAAUGAGAGAGAAUGAGAGAGAGAAUACCCGAGGGCCACCCUGAUGCCCAGGAAGAGUGAGGGCAGCCCCCUGUGUGGUGGAAGAGGCUCUUGCGGUCGCACUAGUGUGGAAUUCUCGGGUGUCAAGG

A.
["2.37 R (bound/input frequency ratio)", "5.83 R (bound/input frequency ratio)"]

Where do these numbers come from? They come from paper PMC12864922.
